Every entry's value here was drawn from BigSolDB 2.1.

# conditions: in methyl acetate, 318.15 K
assay-metric: solubility (mole fraction)

Req: Which solubility (mole fraction) is listed for NC(=O)c1cccnc1Cl ?
Resp: 0.0105

---

# conditions: in DMAc, 278.15 K
assay-metric: solubility (mole fraction)
The answer should be written as a number, with no unit following it.

Req: Which solubility (mole fraction) is listed for NC(=O)c1cccnc1Cl ?
Resp: 0.132

---

# conditions: in DMAc, 303.15 K
assay-metric: solubility (mole fraction)
The answer should be written as a number, with no unit following it.

Req: Which solubility (mole fraction) is listed for NC(=O)c1cccnc1Cl ?
Resp: 0.187
